Exercise: state measured CC50 for each of the molecules provided.
Test system: Huh-7
TEST_SUMMARY: Cytotoxicity against human HuH7 cells after 2 to 3 hrs by CellTiter-Glo assay
Format: cell-based

## Task Can you look up the measured CC50 of CCC(CC)COC(=O)[C@H](C)N[P@](=O)(OCCOCn1cnc(-c2cnc(N)nc2OC)c1)Oc1ccccc1 for me?
## Result > 50 µM

## Task Can you look up the measured CC50 of COc1nc(N)ncc1-c1cn(COCCO)cn1 for me?
## Result > 50 µM
